# system.tested: Receptor-interacting serine/threonine-protein kinase 4 (Homo sapiens)
# Sequence (P57078 whole entry): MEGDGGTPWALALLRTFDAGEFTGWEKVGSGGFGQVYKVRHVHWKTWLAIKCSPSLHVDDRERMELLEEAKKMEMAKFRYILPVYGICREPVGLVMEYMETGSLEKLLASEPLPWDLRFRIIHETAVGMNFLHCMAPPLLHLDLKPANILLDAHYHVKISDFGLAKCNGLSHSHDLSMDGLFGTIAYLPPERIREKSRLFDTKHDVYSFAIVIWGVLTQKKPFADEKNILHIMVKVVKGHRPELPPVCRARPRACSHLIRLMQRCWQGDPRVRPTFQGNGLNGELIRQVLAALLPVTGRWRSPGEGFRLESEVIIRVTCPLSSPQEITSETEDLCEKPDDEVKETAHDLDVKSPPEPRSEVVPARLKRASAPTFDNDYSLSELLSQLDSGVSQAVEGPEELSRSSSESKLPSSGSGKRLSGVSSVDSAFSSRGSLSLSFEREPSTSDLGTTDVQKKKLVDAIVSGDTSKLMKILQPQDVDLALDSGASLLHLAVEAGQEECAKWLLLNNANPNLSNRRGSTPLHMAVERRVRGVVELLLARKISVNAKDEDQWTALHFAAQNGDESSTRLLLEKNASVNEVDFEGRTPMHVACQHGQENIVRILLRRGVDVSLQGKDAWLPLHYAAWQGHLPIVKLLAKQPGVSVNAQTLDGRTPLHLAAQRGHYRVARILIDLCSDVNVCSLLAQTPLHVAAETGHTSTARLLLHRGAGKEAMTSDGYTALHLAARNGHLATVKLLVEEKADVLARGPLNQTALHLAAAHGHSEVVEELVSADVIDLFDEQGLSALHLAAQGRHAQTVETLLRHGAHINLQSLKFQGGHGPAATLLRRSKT
property: Kd

The compound listed as "Cc1ccc(-c2cn([C@H]3CC[C@@H](N)CC3)c3ncnc(N)c23)c(F)c1" shows Kd equal to 2300 nM

* * *

# experiment.notes: Clearance in Balb/C mouse plasma at 10 mg/kg, po measured upto 48 hrs by LC-MS/MS analysis
# Format: ADME, organism-based
property: CL/F (mL/min/kg)
Just the number in mL/min/kg, nothing appended.

The compound listed as "Cc1ccc(-c2cn([C@H]3CC[C@@H](N)CC3)c3ncnc(N)c23)c(F)c1" shows CL/F equal to 1130

* * *

// Receptor-interacting serine/threonine-protein kinase 2 (Homo sapiens) pIC50 records
By convention, pIC50 is the negative base-10 log of a molar concentration.

| molecule | pIC50 |
| --- | --- |
| C=CCN[C@H]1CC[C@@H](n2cc(-c3ccc(OC)cc3)c3c(N)ncnc32)CC1 | 8.28 |
| COc1ccc(-c2cn([C@H]3CC[C@@H](NC(=O)C(C)Cl)CC3)c3ncnc(N)c23)cc1 (some centres not stated) | 7.78 |
| COc1ccc(-c2cn([C@H]3CC[C@@H](NC(=O)C(C)(C)C)CC3)c3ncnc(N)c23)cc1 | 7.81 |
| Nc1ncnc2c1c(-c1cccc(F)c1)cn2[C@H]1CC[C@@H](N)CC1 | 8.19 |
| Cc1cccc(-c2cn([C@H]3CC[C@@H](N)CC3)c3ncnc(N)c23)c1 | 7.97 |
| Cc1ccc(-c2nn(C(C)(C)CNC(=O)c3ccncc3)c3ncnc(N)c23)cc1 | 7.47 |

Moving on to another molecule below.
The molecule listed as "CCCC(=O)N[C@H]1CC[C@@H](n2cc(-c3ccc(OC)cc3)c3c(N)ncnc32)CC1" shows pIC50 equal to 8.22
